Origin of measurements: patent US20220195012A1

target or test system: AP C3-convertase (C3bBb) (UniProt P01024)
Sequence (P01024 23-667 limits assumed, chain 1 of 3): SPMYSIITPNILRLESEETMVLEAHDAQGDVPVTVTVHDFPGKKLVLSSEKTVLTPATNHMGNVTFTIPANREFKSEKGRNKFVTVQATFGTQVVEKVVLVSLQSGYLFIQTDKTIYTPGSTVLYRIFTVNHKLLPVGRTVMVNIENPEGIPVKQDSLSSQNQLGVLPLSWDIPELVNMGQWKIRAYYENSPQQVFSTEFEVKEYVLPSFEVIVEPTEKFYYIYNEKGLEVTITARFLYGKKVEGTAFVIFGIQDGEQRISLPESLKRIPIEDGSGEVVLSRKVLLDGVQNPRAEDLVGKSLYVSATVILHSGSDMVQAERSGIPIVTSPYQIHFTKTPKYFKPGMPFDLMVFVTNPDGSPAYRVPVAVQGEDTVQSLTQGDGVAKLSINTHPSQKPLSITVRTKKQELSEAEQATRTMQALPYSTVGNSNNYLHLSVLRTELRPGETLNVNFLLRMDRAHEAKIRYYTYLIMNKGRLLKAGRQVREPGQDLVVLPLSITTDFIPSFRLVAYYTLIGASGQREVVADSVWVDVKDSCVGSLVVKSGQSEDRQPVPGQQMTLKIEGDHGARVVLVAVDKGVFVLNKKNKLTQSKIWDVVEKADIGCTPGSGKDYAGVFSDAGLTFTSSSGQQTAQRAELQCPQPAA
Sequence (P01024 749-1663 limits assumed, chain 2 of 3): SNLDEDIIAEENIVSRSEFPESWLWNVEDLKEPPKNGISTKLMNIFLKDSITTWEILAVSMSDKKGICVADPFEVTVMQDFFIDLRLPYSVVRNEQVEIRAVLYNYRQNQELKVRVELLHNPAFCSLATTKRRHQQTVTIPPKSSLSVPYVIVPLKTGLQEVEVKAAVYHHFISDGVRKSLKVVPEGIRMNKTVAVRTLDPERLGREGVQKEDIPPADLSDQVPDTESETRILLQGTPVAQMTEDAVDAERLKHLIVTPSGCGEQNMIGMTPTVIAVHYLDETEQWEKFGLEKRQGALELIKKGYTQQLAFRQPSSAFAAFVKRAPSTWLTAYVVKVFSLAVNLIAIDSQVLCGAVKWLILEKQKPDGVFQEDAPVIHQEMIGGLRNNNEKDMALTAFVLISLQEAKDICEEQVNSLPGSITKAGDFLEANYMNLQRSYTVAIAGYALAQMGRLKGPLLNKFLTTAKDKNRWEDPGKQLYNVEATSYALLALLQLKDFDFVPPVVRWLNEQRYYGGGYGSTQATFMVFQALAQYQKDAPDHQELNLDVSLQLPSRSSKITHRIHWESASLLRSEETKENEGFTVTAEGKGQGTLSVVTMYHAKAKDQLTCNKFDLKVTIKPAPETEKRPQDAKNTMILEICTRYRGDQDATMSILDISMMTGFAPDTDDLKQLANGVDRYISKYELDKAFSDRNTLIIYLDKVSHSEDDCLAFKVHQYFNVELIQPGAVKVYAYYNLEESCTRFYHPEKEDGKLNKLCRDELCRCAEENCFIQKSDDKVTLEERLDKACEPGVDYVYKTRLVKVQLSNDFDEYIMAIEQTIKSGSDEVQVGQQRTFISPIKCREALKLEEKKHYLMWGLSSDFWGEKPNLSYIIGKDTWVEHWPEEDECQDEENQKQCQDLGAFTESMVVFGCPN
Sequence (P00751 260-764 limits assumed, chain 3 of 3, further chain): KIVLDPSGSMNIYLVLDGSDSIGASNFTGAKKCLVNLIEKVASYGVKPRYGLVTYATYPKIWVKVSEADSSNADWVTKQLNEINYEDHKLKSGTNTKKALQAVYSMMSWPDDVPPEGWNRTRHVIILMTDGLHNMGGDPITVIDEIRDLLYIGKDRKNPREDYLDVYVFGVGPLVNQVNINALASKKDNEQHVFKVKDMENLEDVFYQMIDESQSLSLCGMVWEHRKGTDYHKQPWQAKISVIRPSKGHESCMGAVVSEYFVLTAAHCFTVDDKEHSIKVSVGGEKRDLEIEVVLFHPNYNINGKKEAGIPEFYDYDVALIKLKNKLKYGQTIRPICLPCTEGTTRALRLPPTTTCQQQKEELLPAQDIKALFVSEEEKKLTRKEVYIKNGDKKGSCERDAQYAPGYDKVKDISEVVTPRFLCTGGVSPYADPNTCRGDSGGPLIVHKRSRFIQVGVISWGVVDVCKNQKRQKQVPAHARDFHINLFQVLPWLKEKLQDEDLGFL
assay summary: cell-based or functional assay

binder: D2D3M3M4 (P216K) (protein) CEVPTRLNSASLKQPYITQNYFPVGTVVEYECRPGYRREPSLSPKLTCLQNLKWSTAVEFCKKKSCPNPGEIRNGQIDVPGGILFGATISFSCNTGYKLFGSTSSFCLISGSSVQWSDKLPECREIYCTPPPKIKNGKHTFSEVEVFEYLDAVTYSCDPAPGPDPFSLIGESTIYCGDNSVWSRAAPECKVVKCRFPVVENGKQISGFGKKFYYKATVMFECDKGFYLDGSDTIVCDSNSTWDPPVPKCLKVL
Relative AP-DAA: 0.6
//
binder: D2D3M3M4 (K195Y) (protein) CEVPTRLNSASLKQPYITQNYFPVGTVVEYECRPGYRREPSLSPKLTCLQNLKWSTAVEFCKKKSCPNPGEIRNGQIDVPGGILFGATISFSCNTGYYLFGSTSSFCLISGSSVQWSDPLPECREIYCTPPPKIKNGKHTFSEVEVFEYLDAVTYSCDPAPGPDPFSLIGESTIYCGDNSVWSRAAPECKVVKCRFPVVENGKQISGFGKKFYYKATVMFECDKGFYLDGSDTIVCDSNSTWDPPVPKCLKVL
Relative AP-DAA: 0.2
//
binder: D2D3M3M4 (Multi-5) or DCP (decay-cofactor protein) (protein) CEVPTRLNSASLKQPYITQNYFPVGTVVEYECRPGYRREPSLSPKLTCLQNLKWSTAVEFCKKKSCPNPGEIRNGQIDVPGGILFGATISFSCNTGYKLIGSTSSFCLISGSSVQWSDKLPICEKVLCTPPPKIKNGKHTFSEVEVFEYLDAVTYSCDPAPGPDPFSLIGESTIYCGDNSVWSRAAPECKVVKCRFPVVENGKQISGFGKKFYYKATVMFECDKGFYLDGSDTIVCDSNSTWDPPVPKCLKVL
Relative AP-DAA: 1.3
//
binder: D2D3M3M4 (S199K) (protein) CEVPTRLNSASLKQPYITQNYFPVGTVVEYECRPGYRREPSLSPKLTCLQNLKWSTAVEFCKKKSCPNPGEIRNGQIDVPGGILFGATISFSCNTGYKLFGKTSSFCLISGSSVQWSDPLPECREIYCTPPPKIKNGKHTFSEVEVFEYLDAVTYSCDPAPGPDPFSLIGESTIYCGDNSVWSRAAPECKVVKCRFPVVENGKQISGFGKKFYYKATVMFECDKGFYLDGSDTIVCDSNSTWDPPVPKCLKVL
Relative AP-DAA: 0.3
